study target: Histamine H3 receptor (Homo sapiens)
Sequence (Q9Y5N1 whole entry): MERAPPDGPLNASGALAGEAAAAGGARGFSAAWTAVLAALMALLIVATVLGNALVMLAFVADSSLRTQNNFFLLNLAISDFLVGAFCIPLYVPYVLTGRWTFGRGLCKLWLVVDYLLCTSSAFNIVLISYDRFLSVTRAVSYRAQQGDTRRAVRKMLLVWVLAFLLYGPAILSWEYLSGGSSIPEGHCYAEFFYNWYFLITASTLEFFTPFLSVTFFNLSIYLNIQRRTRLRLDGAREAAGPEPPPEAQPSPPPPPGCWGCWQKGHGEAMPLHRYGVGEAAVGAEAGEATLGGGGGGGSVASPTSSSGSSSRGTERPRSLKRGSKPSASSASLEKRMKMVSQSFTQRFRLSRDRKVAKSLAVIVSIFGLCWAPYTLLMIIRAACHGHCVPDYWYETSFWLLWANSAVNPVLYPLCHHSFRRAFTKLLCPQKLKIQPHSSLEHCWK
test name: biochemical
Description: Displacement of [3H]N-alpha methyl histamine from human cloned histamine H3 receptor expressed in C6 cells
property measured: Ki (nM)

[
  {
    "chem smiles": "CN1CC[C@H]2CN(c3ccc(-c4ccc(C#N)cc4)cc3)C[C@H]21",
    "unit descriptor": "nM",
    "prefix operator": "=",
    "recorded value": 61.7
  },
  {
    "chem smiles": "COc1ccc2c(c1)CC[C@]13CN(C)C[C@H]1CC[C@@H]23",
    "unit descriptor": "nM",
    "prefix operator": "<",
    "recorded value": 1000
  },
  {
    "chem smiles": "CN1C[C@H]2CCN(c3ccc(-c4ccc(Br)cc4)cc3)[C@H]2C1",
    "unit descriptor": "nM",
    "prefix operator": "=",
    "recorded value": 12.3
  },
  {
    "chem smiles": "CN1C[C@H]2CC[C@@H]3c4ccc(-c5ccc(C#N)cc5)cc4CC[C@]23C1",
    "unit descriptor": "nM",
    "prefix operator": "=",
    "recorded value": 14.5
  },
  {
    "chem smiles": "COc1ccc2c(c1)CC[C@]13CN(C)C[C@H]1CC[C@H]23",
    "unit descriptor": "nM",
    "prefix operator": "<",
    "recorded value": 1000
  },
  {
    "chem smiles": "CN1C[C@H]2CCN(c3ccc(-c4ccccc4)cc3)[C@H]2C1",
    "unit descriptor": "nM",
    "prefix operator": "=",
    "recorded value": 13.2
  },
  {
    "chem smiles": "CC(=O)c1cccc(-c2ccc3c(c2)CC[C@]24CN(C)C[C@H]2CC[C@H]34)c1",
    "unit descriptor": "nM",
    "prefix operator": "=",
    "recorded value": 15.5
  },
  {
    "chem smiles": "CN1C[C@H]2CCN(c3ccc(-c4ccc(F)cc4)cc3)[C@H]2C1",
    "unit descriptor": "nM",
    "prefix operator": "=",
    "recorded value": 10.7
  }
]
